tested_on: TIE2 intracellular domain/c-fms extracellular domain (TIE2/c-fms) chimeric protein (Homo sapiens, UniProt Q02763)
Construct: TIE2 intracellular domain/c-fms extracellular domain (TIE2/c-fms) chimeric protein; expressed in transfected cells; host or cells: mouse 3T3 cells
Sequence (Q02763 770-1124 limits assumed, change not shown): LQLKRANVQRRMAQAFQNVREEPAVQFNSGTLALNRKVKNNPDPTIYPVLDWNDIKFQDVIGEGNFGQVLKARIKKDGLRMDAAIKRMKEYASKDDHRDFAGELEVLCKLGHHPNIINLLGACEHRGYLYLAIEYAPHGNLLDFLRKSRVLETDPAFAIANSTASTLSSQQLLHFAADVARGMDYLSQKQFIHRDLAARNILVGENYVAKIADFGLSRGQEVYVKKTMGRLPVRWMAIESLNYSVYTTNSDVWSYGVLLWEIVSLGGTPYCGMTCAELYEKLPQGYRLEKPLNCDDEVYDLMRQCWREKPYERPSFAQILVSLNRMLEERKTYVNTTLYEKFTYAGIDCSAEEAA
Sequence (P07333 20-517 partner limits assumed): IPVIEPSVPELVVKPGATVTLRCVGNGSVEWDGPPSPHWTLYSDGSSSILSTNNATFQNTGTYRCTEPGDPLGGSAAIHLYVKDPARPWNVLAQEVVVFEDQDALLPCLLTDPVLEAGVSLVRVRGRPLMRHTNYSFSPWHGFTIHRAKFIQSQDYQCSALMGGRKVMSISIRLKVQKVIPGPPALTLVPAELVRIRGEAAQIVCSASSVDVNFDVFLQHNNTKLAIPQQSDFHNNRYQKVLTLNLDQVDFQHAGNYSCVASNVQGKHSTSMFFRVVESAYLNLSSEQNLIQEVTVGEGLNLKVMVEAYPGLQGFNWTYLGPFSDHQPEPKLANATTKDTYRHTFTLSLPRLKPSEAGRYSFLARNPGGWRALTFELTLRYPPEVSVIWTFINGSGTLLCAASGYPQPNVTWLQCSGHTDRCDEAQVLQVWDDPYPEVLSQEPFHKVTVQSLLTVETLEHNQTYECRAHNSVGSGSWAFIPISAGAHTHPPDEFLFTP
Sequence (P09603 33-190 partner limits assumed): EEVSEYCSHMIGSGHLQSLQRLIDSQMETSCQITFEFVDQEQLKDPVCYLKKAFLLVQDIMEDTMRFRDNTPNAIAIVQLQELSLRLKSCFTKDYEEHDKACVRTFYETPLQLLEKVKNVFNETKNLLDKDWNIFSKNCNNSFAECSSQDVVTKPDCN
protocol_summary: TIE-2 Autophosphorylation Assay (TIE2-C), ELISA
Assay type: cell-based
study_conditions: TIE2/c-fms expressing mouse 3T3 cells, MCSF activation, read-out: TIE2-C pIC50 (converted)
This section presents molecules with their documented IC50 values.

Solved cases (3 shown):
smiles_notation=Nc1ncnc2occ(-c3ccc(NC(=O)Nc4cc(C(F)(F)F)ccc4F)cc3)c12 test_result="< 100 nM"
smiles_notation=COc1ccc(-c2oc3ncnc(N)c3c2-c2ccc(SC)cc2)cc1 test_result="1000 to 10000 nM"
smiles_notation=Nc1ncnc2oc(-c3cccc(S(N)(=O)=O)c3)c(-c3ccc(-c4cccc(-c5ccccc5)c4)cc3)c12 test_result="100 to 1000 nM"

In the following, a different molecule is considered.
// IC50 lookup, key: NC(=O)c1cc(-c2oc3ncnc(N)c3c2-c2ccc(-c3ccccc3)cc2)ccc1F 100 to 1000 nM

---

Below: a set of entries, each annotated with reported IC50.
tested_on: TIE2 intracellular domain/c-fms extracellular domain (TIE2/c-fms) chimeric protein (Homo sapiens, UniProt Q02763)
Construct: TIE2 intracellular domain/c-fms extracellular domain (TIE2/c-fms) chimeric protein; expressed in transfected cells; host or cells: mouse 3T3 cells
protocol_summary: TIE-2 Autophosphorylation Assay (TIE2-C), ELISA
Assay type: cell-based
study_conditions: TIE2/c-fms expressing mouse 3T3 cells, MCSF activation, read-out: TIE2-C pIC50 (converted)

smiles_notation=CS(=O)(=O)Nc1ccc(-c2oc3ncnc(N)c3c2-c2ccc(-c3ccccc3)cc2)cc1 measure_name=IC50 test_result="100 to 1000 nM"
smiles_notation=COc1ccc(-c2oc3ncnc(N)c3c2-c2ccc(NC(=O)Nc3cc(C(F)(F)F)ccc3F)cc2)cc1 measure_name=IC50 test_result="< 100 nM"
smiles_notation=COc1ccc(-c2oc3ncnc(N)c3c2-c2ccc(-c3ccccc3)cc2)cc1NS(C)(=O)=O measure_name=IC50 test_result="100 to 1000 nM"

Recorded IC50 of CS(=O)(=O)Nc1cc(-c2oc3ncnc(N)c3c2-c2ccc(-c3ccccc3)cc2)ccc1F , please. 100 to 1000 nM

I have this molecule here, Nc1ncnc2oc(-c3cccc(S(N)(=O)=O)c3)c(-c3ccc(-c4ccccc4)cc3)c12 , and I need its recorded IC50. 100 to 1000 nM

Give the measured IC50 of NC(=O)c1cccc(-c2oc3ncnc(N)c3c2-c2ccc(-c3ccccc3)cc2)c1 . 100 to 1000 nM

Given the entry NC(=O)Nc1ccc(-c2oc3ncnc(N)c3c2-c2ccc(-c3ccccc3)cc2)cc1 , report its measured IC50. 100 to 1000 nM

Request the reported IC50 associated with Nc1ncnc2oc(-c3ccc4[nH]cnc4c3)c(-c3ccc(-c4ccccc4)cc3)c12 100 to 1000 nM

Would you mind telling me what IC50 value was observed for Nc1cccc(-c2oc3ncnc(N)c3c2-c2ccc(-c3ccccc3)cc2)c1 ? 100 to 1000 nM

---

tested_on: GST-VEGFR2 (Homo sapiens, UniProt P35968)
Construct: GST-VEGFR2, baculovirus expressed recombinant constructs of the intracellular domains of human TIE2 tagged by GST; made in house
Sequence (P35968 786-1356 limits assumed): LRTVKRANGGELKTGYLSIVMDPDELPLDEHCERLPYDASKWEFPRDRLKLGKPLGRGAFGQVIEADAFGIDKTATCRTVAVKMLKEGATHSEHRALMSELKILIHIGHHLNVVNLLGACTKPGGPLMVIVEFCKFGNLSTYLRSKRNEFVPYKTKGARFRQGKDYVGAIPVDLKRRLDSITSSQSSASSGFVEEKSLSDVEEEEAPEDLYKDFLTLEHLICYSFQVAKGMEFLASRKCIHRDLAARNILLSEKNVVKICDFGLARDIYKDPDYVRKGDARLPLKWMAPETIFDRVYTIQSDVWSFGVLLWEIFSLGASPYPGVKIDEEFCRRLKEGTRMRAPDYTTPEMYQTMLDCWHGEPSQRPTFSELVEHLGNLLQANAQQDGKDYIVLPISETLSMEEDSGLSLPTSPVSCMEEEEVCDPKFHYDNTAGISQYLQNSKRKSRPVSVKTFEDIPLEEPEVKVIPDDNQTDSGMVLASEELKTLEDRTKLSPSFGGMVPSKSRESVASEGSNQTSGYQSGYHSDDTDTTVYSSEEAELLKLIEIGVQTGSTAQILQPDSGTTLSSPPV
protocol_summary: VEGF-R2 Enzyme Assay (VEGF-E), LANCE method
Format: biochemical
study_conditions: GST-VEGFR2, 75 uM ATP
measure_name: VEGF-E pIC50

smiles_notation=Nc1ncnc2scc(-c3ccc(NC(=O)C4(c5ccccc5)CC4)cc3)c12 tested_on="GST-VEGFR2 (Homo sapiens, UniProt P35968)" test_result="+ (+ = pIC50 of 5.0–6.0)"
smiles_notation=Nc1ncnc2scc(-c3ccc(NC(=O)Cc4cccc(SC(F)(F)F)c4)cc3)c12 tested_on="GST-VEGFR2 (Homo sapiens, UniProt P35968)" test_result="+ (+ = pIC50 of 5.0–6.0)"

---

tested_on: GST-TIE2 (intracellular domains of human TIE2) (Homo sapiens)
Construct: made in house
Sequence (Q02763 762-1104): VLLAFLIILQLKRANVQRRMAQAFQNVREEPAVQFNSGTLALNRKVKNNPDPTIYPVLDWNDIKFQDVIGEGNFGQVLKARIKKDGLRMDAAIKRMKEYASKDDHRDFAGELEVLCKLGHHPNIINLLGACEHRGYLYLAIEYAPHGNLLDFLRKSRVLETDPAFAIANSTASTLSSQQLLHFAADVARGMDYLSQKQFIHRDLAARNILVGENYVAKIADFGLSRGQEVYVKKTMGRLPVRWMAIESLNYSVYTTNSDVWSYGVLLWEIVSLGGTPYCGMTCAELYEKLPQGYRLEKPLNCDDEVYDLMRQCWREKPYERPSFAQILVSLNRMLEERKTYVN
protocol_summary: TIE-2 Enzyme assay (TIE2-E), LANCE method
Assay type: biochemical
study_conditions: GST-TIE2, 80 uM ATP, D1–15 peptide
measure_name: TIE2-E pIC50

molecule="Nc1ncnc2oc(-c3ccoc3)c(-c3ccco3)c12 [Example 15]" measure_name="TIE2-E pIC50" test_result="+ (+ = pIC50 of 5.0–6.0)"
molecule="Cc1ccc(-c2oc3ncnc(N)c3c2-c2ccc(C)cc2)cc1 [Example 16]" measure_name="TIE2-E pIC50" test_result="+ (+ = pIC50 of 5.0–6.0)"

---

Each entry below lists one item and its recorded IC50 value.
tested_on: GST-TIE2 (intracellular domains of human TIE2) (Homo sapiens)
Construct: made in house
protocol_summary: TIE-2 Enzyme assay (TIE2-E), LANCE method
Type: biochemical
study_conditions: GST-TIE2, 80 uM ATP, D1–15 peptide; read-out: TIE2-E pIC50 (converted)
Experimental: TIE-2 Enzyme assay (TIE2-E) Preactivated GST-TIE2 was incubated for 30 mins at room temperature in 96 well plates with 1 uM D1–15 peptide, 80 uM ATP, 10 mM MgCl2, 0.1 mg/ml BSA and the test compound (diluted from a 10 mM stock in DMSO, final DMSO concentration was 2.4%) in 1 mM HEPES (pH 7.4). […] The APC signal was measured using an ARVO multilabel counter. […] The percent inhibition of activity was calculated relative to blank control wells. […]

Solved entries (count: 6):
compound="Nc1ncnc2oc(-c3cccc(S(N)(=O)=O)c3)c(-c3ccc(-c4ccccc4)cc3)c12 [Example 166]" test_result="100 to 1000 nM"
compound="CS(=O)(=O)Nc1cc(-c2oc3ncnc(N)c3c2-c2ccc(-c3ccccc3)cc2)ccc1F [Example 179]" test_result="100 to 1000 nM"
compound="COc1ccc(-c2oc3ncnc(N)c3c2-c2ccc(-c3ccccc3)cc2)cc1NS(C)(=O)=O [Example 189]" test_result="100 to 1000 nM"
compound="Nc1ncnc2oc(-c3cccc(S(N)(=O)=O)c3)c(-c3ccc(-c4cccc(F)c4F)cc3)c12 [Example 5]" test_result="100 to 1000 nM"
compound="COc1ccc(-c2oc3ncnc(N)c3c2-c2ccc(-c3ccccc3)cc2)cc1 [Example 34]" test_result="100 to 1000 nM"
compound="CS(=O)(=O)Nc1ccc(-c2oc3ncnc(N)c3c2-c2ccc(-c3ccccc3)cc2)cc1 [Example 191]" test_result="100 to 1000 nM"

If you can, please state the reported IC50 value of Nc1ncnc2occ(-c3ccc(NC(=O)Nc4cc(C(F)(F)F)ccc4F)cc3)c12 [232 (8C)] . < 100 nM

What does the record list as IC50 for COc1ccc(-c2oc3ncnc(N)c3c2-c2ccc(NC(=O)Nc3cc(C(F)(F)F)ccc3F)cc2)cc1 [Example 4] ? < 100 nM

---

tested_on: TIE2 intracellular domain/c-fms extracellular domain (TIE2/c-fms) chimeric protein (Homo sapiens, UniProt Q02763)
Construct: TIE2 intracellular domain/c-fms extracellular domain (TIE2/c-fms) chimeric protein; expressed in transfected cells; host or cells: mouse 3T3 cells
protocol_summary: TIE-2 Autophosphorylation Assay (TIE2-C), ELISA
Format: cell-based
study_conditions: TIE2/c-fms expressing mouse 3T3 cells, MCSF activation, read-out: TIE2-C pIC50 (converted)
Experimental: TIE-2 Autophosphorylation Assay (TIE2-C) The TIE-2 autophosphorylation assay used an ELISA method and a TIE2 intracellular domain/c-fms extracellular domain (TIE2/c-fms) chimeric protein expressing mouse 3T3 cells. This assay measured the autophosphorylation level of TIE2 protein expressed in cells. […] The optical density at 450 nm derived from HRP catalyzed TMB was measured with an ARVO multilabel counter. […] The percent inhibition of activity was calculated relative to blank control wells. […]
measure_name: IC50

Completed entries (count: 2):
smiles_notation=CNS(=O)(=O)c1cccc(-c2oc3ncnc(N)c3c2-c2ccc(-c3ccccc3)cc2)c1 test_result="100 to 1000 nM"
smiles_notation=N#Cc1cccc(-c2oc3ncnc(N)c3c2-c2ccc(NC(=O)Nc3cc(C(F)(F)F)ccc3F)cc2)c1 test_result="< 100 nM"

Moving on to the next molecule.
Find the recorded IC50 belonging to NC(=O)Nc1cccc(-c2oc3ncnc(N)c3c2-c2ccc(-c3ccccc3)cc2)c1 and report it. 100 to 1000 nM

The measured values listed here are drawn from patent US7427623B2.
